Target: Aminopeptidase N (Plasmodium falciparum FcB1/Columbia, UniProt O96935)
Sequence (O96935 whole entry): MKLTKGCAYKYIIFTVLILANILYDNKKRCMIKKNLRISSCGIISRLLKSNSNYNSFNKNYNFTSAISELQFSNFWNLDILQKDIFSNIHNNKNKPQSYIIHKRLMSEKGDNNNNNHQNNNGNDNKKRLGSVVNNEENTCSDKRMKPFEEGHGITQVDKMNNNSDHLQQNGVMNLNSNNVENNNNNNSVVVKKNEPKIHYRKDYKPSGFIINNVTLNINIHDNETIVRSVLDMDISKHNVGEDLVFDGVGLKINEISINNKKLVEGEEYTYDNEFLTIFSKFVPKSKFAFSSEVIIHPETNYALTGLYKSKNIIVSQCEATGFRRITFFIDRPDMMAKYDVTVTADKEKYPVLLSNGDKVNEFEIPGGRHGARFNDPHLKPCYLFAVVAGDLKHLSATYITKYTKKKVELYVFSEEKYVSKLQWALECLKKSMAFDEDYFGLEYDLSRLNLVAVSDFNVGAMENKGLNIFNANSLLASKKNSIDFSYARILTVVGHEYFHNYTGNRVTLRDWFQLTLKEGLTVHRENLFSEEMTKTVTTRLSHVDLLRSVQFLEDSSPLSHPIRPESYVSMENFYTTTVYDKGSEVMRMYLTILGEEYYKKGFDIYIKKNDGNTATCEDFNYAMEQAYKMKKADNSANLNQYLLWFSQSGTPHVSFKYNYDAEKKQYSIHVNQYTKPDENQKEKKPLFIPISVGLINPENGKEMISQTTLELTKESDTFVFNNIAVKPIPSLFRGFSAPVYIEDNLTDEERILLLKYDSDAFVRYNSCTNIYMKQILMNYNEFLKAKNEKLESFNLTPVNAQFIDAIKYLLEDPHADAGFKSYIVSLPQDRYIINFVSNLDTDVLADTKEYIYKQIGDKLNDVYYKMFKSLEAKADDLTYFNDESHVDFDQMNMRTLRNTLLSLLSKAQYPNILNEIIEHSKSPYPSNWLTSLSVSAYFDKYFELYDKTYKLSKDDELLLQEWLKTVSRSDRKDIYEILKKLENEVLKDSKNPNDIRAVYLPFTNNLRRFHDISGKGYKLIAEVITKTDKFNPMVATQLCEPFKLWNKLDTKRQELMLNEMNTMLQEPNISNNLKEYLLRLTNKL
Experiment: malaria alanyl aminopeptidase activity blockers – biochemical, fluorogenic H-Leu-NHMec substrate, 1536-well (AID 1445)
Set-up: species or system Plasmodium falciparum 3D7, 3D7
Activity calls are given as the source filed them.
outcome measure: IC50

Look at this compound and give its reported IC50. `Cc1n[nH]c(S/C(=C/c2ccc(-c3ccc(C(=O)O)cc3)o2)C(=O)O)n1`
18.5 µM (active)

Recorded IC50 for `O=c1oc2c(CN3CCOCC3)c(O)c(Cl)cc2c2c1CCC2` , please?
42.9 µM (active)

May I ask what IC50 has been recorded for `CCOC(=O)c1cc(-c2ccc(/C=C3/C(=O)NC(=O)C(C#N)=C3C)o2)ccc1Cl` ?
80.1 µM (active)

What IC50 value was documented for this compound, CCOC(=O)CC1C(=O)NCCN1c1nc2c(C)cccn2c(=O)c1/C=C1\SC(=S)N(CC(C)C)C1=O (stereo unspecified) ?
42.5 µM (active)

State the recorded IC50 for this entry: `CCOC(=O)C1=C(Nc2ccc(C)cc2)S/C(=C\c2ccc(OCC(=O)O)c(OCC)c2)C1=O`
48.6 µM (active)

Which IC50 reading was recorded for the compound `COc1cc(/C=C(\C#N)c2nc3cc(C)ccc3[nH]2)cc([N+](=O)[O-])c1O` ?
16.2 µM (active)

* * *

Biological target: Ubiquitin-conjugating enzyme E2 N (Homo sapiens);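 also: Dose-response confirmation in a TR-FRET assay detecting UBC13-driven polyubiquitin chain formation, inhibition measured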
Sequence (P61088 whole entry): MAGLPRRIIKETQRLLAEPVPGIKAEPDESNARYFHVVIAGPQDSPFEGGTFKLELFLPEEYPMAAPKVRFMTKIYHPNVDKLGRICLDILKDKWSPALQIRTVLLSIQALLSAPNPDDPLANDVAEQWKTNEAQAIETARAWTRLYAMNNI
Format: functional
The source made the active and inactive calls.
Output constraint: value belongs to active, inactive

Give the logged outcome of this assay for the following molecule: `COc1ccc2nc(C)cc(N/N=C/c3ccccc3)c2c1`
inactive

Outcome logged for `Cc1nc(N)sc1C(=O)N/N=C/c1cccnc1` in this assay:
active

Outcome? `O=C(Nc1ccc(C2=NCCN2)cc1)c1ccc(C(=O)Nc2ccc(C3=NCCN3)cc2)c([N+](=O)[O-])c1`
active
